Target: Heme ligase (Plasmodium falciparum (isolate 3D7))
Sequence (Q8IL04 whole entry): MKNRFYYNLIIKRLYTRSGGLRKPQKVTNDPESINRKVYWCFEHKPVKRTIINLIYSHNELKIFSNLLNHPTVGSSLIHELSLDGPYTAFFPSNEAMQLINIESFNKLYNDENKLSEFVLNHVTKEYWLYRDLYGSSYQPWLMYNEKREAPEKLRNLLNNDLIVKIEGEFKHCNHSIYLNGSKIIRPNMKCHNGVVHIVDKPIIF
Experiment: Binding affinity to Plasmodium falciparum 3D7 HDP assessed as equilibrium dissociation constant by SPR assay
measureName: pKd
Give bare numbers, as −log10 of the molar value.

Which pKd is listed for "FC(F)(F)c1cccc(N2CCN(C3=Cc4ccccc4CC3)CC2)c1" ?
5.53
